Where do the numbers come from? From ChEMBL document CHEMBL2346523.

Molecular target: Beta-2 adrenergic receptor (Homo sapiens)
Assay: Displacement of [3H]-CGP12177 from human beta2 adrenoceptor expressed in CHOK1 cells after 2 hrs by scintillation counting analysis
Assay type: cell-based, CHO-K1
METRIC: Kd (µM)
One number for each entry, in µM.

// known answers, use as guide
O=C(NCCNCC(O)COc1ccc(OCCOC2CCCC2)cc1)Nc1ccccc1 (centres undefined) ... 2.63
O=C(NCCNCC(O)COc1ccc(OCCOC2CCCC2)cc1)Nc1cccc(Cl)c1 (centres undefined) ... 2.04

Please look at the items below and tell me Kd for each one, in order.
1. O=C(NCCNCC(O)COc1ccc(OCCOCCc2ccc(F)cc2)cc1)Nc1ccc(O)cc1 (centres undefined)
2. N#Cc1cc(OCCOCC2CC2)ccc1OCC(O)CNCCNC(=O)Nc1ccc(O)cc1 (centres undefined) [LK-204545]

A)
1: 1.23; 2: 5.13

###

So I've got a bunch of compounds here, and I need their Activity values.
Biological target: Beta-3 adrenergic receptor (Homo sapiens, UniProt P13945)
Sequence (P13945 whole entry, looked up): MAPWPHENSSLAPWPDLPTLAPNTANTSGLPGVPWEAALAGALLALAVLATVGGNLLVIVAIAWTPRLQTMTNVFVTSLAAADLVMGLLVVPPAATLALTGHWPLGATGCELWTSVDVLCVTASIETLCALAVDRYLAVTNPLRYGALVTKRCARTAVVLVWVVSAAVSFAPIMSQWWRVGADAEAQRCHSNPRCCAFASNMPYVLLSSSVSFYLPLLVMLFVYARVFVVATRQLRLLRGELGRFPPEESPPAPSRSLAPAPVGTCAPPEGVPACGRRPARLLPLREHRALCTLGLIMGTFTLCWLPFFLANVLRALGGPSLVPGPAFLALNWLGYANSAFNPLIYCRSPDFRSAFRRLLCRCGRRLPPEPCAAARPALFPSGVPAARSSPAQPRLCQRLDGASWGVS
Experiment: Agonist activity at human beta3 adrenoceptor expressed in CHOK1 cells assessed as induction of [3H]cAMP accumulation at 10 uM after 5 hrs relative to isoprenaline
Assay type: functional, cell-based
Details: CHO-K1
Answers are plain numbers, in %.

// known answers, use as guide
O=C(NCCNCC(O)COc1ccc(OCCOC2CCCC2)cc1)Nc1cccc(Cl)c1 (stereo not drawn) ... 2
O=C(NCCNCC(O)COc1ccc(OCCOC2CCCC2)cc1)Nc1ccccc1 (stereo not drawn) ... 4
N#Cc1cc(OCCOCC2CC2)ccc1OCC(O)CNCCNC(=O)Nc1ccc(O)cc1 (stereo not drawn) [LK-204545] ... 8.6

Please look at the items below and tell me Activity for each one, in order.
1. O=C(NCCNCC(O)COc1ccc(OCCOC2CCCC2)cc1)Nc1ccc(O)cc1 (stereo not drawn)
2. O=C(NCCNCC(O)COc1ccc(OCCOCC2CC2)cc1)Nc1ccc(O)cc1 (stereo not drawn)
3. CCOCCOc1ccc(OCC(O)CNCCNC(=O)Nc2ccc(O)cc2)cc1 (stereo not drawn)
4. N#Cc1ccccc1OCC(O)CNCCNC(=O)Nc1ccccc1 (stereo not drawn)

A)
1. 4
2. 12.5
3. 1.3
4. 11.7

Q) Which Activity is reported for this compound? O=C(NCCNCC(O)COc1ccc(OCCOCCc2ccc(F)cc2)cc1)Nc1ccc(O)cc1 (stereo not drawn)
A) 7.9

###

Target: Beta-1 adrenergic receptor (Homo sapiens)
Assay: Antagonist activity at human beta1 adrenoceptor expressed in CHOK1 cells assessed as inhibition of cimaterol-induced [3H]cAMP accumulation incubated for 15 mins prior to cimaterol induction measured after 5 hrs
Format: functional, cell-based, CHO-K1
METRIC: pKd
One number for each entry, as −log10 of the molar value.

O=C(NCCNCC(O)COc1ccc(OCCOC2CCCC2)cc1)Nc1ccccc1 (stereo unspecified) ... 8.46
O=C(NCCNCC(O)COc1ccc(OCCOC2CCCC2)cc1)Nc1cccc(Cl)c1 (stereo unspecified) ... 8.83

Please look at the items below and tell me pKd for each one, in order.
1. O=C(NCCNCC(O)COc1ccc(OCCOC2CCCC2)cc1)Nc1ccc(O)cc1 (stereo unspecified)
2. O=C(NCCNCC(O)COc1ccc(OCCOCC2CC2)cc1)Nc1ccc(O)cc1 (stereo unspecified)
3. CCOCCOc1ccc(OCC(O)CNCCNC(=O)Nc2ccc(O)cc2)cc1 (stereo unspecified)
4. O=C(NCCNCC(O)COc1ccc(OCCOCCc2ccc(F)cc2)cc1)Nc1ccc(O)cc1 (stereo unspecified)

A)
1: 8.55; 2: 7.75; 3: 7.57; 4: 9.00

###

Molecular target: Beta-1 adrenergic receptor (Homo sapiens, UniProt P08588)
Sequence (P08588 whole entry): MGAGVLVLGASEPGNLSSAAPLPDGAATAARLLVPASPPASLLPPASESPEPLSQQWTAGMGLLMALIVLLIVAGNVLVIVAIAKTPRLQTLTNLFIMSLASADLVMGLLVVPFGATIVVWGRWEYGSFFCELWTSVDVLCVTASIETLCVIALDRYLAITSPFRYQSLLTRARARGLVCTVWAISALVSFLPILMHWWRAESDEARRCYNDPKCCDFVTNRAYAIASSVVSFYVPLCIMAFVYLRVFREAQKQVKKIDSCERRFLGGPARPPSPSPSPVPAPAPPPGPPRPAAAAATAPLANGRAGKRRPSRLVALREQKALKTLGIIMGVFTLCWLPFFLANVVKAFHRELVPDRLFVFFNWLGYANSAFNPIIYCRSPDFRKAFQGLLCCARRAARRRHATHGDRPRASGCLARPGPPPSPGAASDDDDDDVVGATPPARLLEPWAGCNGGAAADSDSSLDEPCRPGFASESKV
Assay: Partial agonist activity at human beta1 adrenoceptor expressed in CHOK1 cells assessed as induction of [3H]cAMP accumulation after 5 hrs
METRIC: pEC50
Numbers only, as −log10 of the molar value.

O=C(NCCNCC(O)COc1ccc(OCCOC2CCCC2)cc1)Nc1cccc(Cl)c1 (stereo unspecified) ... 8.52

Please look at the items below and tell me pEC50 for each one, in order.
1. O=C(NCCNCC(O)COc1ccc(OCCOCC2CC2)cc1)Nc1ccc(O)cc1 (stereo unspecified)
2. CCOCCOc1ccc(OCC(O)CNCCNC(=O)Nc2ccc(O)cc2)cc1 (stereo unspecified)

A)
[8.01, 7.64]

Please look at the items below and tell me pEC50 for each one, in order.
1. O=C(NCCNCC(O)COc1ccc(OCCOC2CCCC2)cc1)Nc1ccccc1 (stereo unspecified)
2. O=C(NCCNCC(O)COc1ccc(OCCOCCc2ccc(F)cc2)cc1)Nc1ccc(O)cc1 (stereo unspecified)
3. O=C(NCCNCC(O)COc1ccc(OCCOC2CCCC2)cc1)Nc1ccc(O)cc1 (stereo unspecified)

A)
1. 8.35
2. 8.64
3. 8.44

###

Target: Beta-2 adrenergic receptor (Homo sapiens)
Assay: Antagonist activity at human beta2 adrenoceptor expressed in CHOK1 cells assessed as inhibition of cimaterol-induced [3H]cAMP accumulation incubated for 15 mins prior to cimaterol induction measured after 5 hrs
Assay type: functional, cell-based, CHO-K1
Settings: read-out: Kd
pKd: −log10 of the molar value.
METRIC: pKd

Q) Which pKd is reported for this compound? CCOCCOc1ccc(OCC(O)CNCCNC(=O)Nc2ccc(O)cc2)cc1 (stereo unspecified)
A) < 5.00

###

Molecular target: Beta-1 adrenergic receptor (Homo sapiens)
Experiment: Displacement of [3H]-CGP12177 from human beta1 adrenoceptor expressed in CHOK1 cells after 2 hrs by scintillation counting analysis
Format: cell-based, CHO-K1
METRIC: pKd
Numbers only, as −log10 of the molar value.

// known answers, use as guide
O=C(NCCNCC(O)COc1ccc(OCCOC2CCCC2)cc1)Nc1ccccc1 (stereo not given) ... 7.91
O=C(NCCNCC(O)COc1ccc(OCCOC2CCCC2)cc1)Nc1ccc(O)cc1 (stereo not given) ... 8.13
O=C(NCCNCC(O)COc1ccc(OCCOC2CCCC2)cc1)Nc1cccc(Cl)c1 (stereo not given) ... 8.21
CCOCCOc1ccc(OCC(O)CNCCNC(=O)Nc2ccc(O)cc2)cc1 (stereo not given) ... 7.04

// next item, pKd requested
Q) Which pKd is reported for this molecule? O=C(NCCNCC(O)COc1ccc(OCCOCC2CC2)cc1)Nc1ccc(O)cc1 (stereo not given)
A) 7.49

###

So I've got a bunch of compounds here, and I need their Kd values.
Target: Beta-2 adrenergic receptor (Homo sapiens, UniProt P07550)
Sequence (P07550 whole entry): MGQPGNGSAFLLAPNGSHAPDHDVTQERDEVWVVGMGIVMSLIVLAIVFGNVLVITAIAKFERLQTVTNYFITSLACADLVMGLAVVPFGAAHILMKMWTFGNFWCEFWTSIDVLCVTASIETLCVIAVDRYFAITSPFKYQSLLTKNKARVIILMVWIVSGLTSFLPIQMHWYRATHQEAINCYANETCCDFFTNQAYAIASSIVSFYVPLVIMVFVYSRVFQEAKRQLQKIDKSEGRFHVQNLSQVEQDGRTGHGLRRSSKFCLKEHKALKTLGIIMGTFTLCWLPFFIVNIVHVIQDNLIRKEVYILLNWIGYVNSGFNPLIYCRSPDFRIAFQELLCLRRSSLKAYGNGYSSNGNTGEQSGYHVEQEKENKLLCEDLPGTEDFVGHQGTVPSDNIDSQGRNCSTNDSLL
Assay: Antagonist activity at human beta2 adrenoceptor expressed in CHOK1 cells assessed as inhibition of cimaterol-induced [3H]cAMP accumulation incubated for 15 mins prior to cimaterol induction measured after 5 hrs
Assay type: functional, cell-based, CHO-K1
Conditions: read-out: pKd (converted)
Numbers only, in nM.

// known answers, use as guide
O=C(NCCNCC(O)COc1ccc(OCCOCCc2ccc(F)cc2)cc1)Nc1ccc(O)cc1 (stereo unspecified) ... 891
O=C(NCCNCC(O)COc1ccc(OCCOC2CCCC2)cc1)Nc1cccc(Cl)c1 (stereo unspecified) ... 794
N#Cc1cc(OCCOCC2CC2)ccc1OCC(O)CNCCNC(=O)Nc1ccc(O)cc1 (stereo unspecified) ... 2880
O=C(NCCNCC(O)COc1ccc(OCCOC2CCCC2)cc1)Nc1ccc(O)cc1 (stereo unspecified) ... 1450
O=C(NCCNCC(O)COc1ccc(OCCOC2CCCC2)cc1)Nc1ccccc1 (stereo unspecified) ... 1200

// next item, Kd requested
Q) Which Kd is reported for this compound? O=C(NCCNCC(O)COc1ccc(OCCOCC2CC2)cc1)Nc1ccc(O)cc1 (stereo unspecified)
A) 7080
